assay-target: T1, Human CD137 ECD (human)
T1 construct: also called 4-1BB
T1 sequence (chain, as listed by the source limits assumed): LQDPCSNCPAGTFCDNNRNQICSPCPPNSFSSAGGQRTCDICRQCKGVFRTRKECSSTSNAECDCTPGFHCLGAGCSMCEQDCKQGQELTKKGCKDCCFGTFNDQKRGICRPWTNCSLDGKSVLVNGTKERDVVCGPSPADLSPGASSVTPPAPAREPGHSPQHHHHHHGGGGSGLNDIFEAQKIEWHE
test-protocol: single mutant vs template dBBDu183H
result-type: fold change of affinity (fold)

binder="H183/L072 VH S62P (antibody, name in Kabat numbering, V domains shown) VH: QVQLVESGGGLVQPGRSLRLSCAASGFTFSNAWMHWVRQAPGKGLEWVAQIKDKGNAYAAYYAPPVKGRFTISRDDSKNSIYLQMNSLKTEDTAVYYCHYVHYASASTVLPAFGVDAWGQGTTVTVSS VL: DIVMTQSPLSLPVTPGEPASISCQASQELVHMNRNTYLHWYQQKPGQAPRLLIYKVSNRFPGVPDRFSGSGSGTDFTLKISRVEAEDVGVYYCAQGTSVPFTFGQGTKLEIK" result_type="fold change of affinity" readout_number=0.7
binder="H183/L072 VH V63M (antibody, name in Kabat numbering, V domains shown) VH: QVQLVESGGGLVQPGRSLRLSCAASGFTFSNAWMHWVRQAPGKGLEWVAQIKDKGNAYAAYYAPSMKGRFTISRDDSKNSIYLQMNSLKTEDTAVYYCHYVHYASASTVLPAFGVDAWGQGTTVTVSS VL: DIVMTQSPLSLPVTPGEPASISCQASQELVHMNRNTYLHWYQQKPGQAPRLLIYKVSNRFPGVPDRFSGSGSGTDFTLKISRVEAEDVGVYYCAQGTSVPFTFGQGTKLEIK" result_type="fold change of affinity" readout_number=0.8
binder="H183/L072 VH V95A (antibody, name in Kabat numbering, V domains shown) VH: QVQLVESGGGLVQPGRSLRLSCAASGFTFSNAWMHWVRQAPGKGLEWVAQIKDKGNAYAAYYAPSVKGRFTISRDDSKNSIYLQMNSLKTEDTAVYYCHYAHYASASTVLPAFGVDAWGQGTTVTVSS VL: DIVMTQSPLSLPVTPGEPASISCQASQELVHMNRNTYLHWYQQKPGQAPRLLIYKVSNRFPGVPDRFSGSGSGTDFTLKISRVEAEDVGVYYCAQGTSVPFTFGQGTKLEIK" result_type="fold change of affinity" readout_number=0
binder="H183/L072 VH K64M (antibody, name in Kabat numbering, V domains shown) VH: QVQLVESGGGLVQPGRSLRLSCAASGFTFSNAWMHWVRQAPGKGLEWVAQIKDKGNAYAAYYAPSVMGRFTISRDDSKNSIYLQMNSLKTEDTAVYYCHYVHYASASTVLPAFGVDAWGQGTTVTVSS VL: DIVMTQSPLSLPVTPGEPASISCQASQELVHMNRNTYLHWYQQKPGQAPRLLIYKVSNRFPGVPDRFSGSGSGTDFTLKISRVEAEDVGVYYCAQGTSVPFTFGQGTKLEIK" result_type="fold change of affinity" readout_number=1.1
binder="H183/L072 VH A54N (antibody, name in Kabat numbering, V domains shown) VH: QVQLVESGGGLVQPGRSLRLSCAASGFTFSNAWMHWVRQAPGKGLEWVAQIKDKGNNYAAYYAPSVKGRFTISRDDSKNSIYLQMNSLKTEDTAVYYCHYVHYASASTVLPAFGVDAWGQGTTVTVSS VL: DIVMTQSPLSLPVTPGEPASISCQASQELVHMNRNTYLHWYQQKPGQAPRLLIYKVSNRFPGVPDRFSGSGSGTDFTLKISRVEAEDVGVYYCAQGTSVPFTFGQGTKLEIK" result_type="fold change of affinity" readout_number=1.1
